Experiment: Plasmodium falciparum growth inhibition, primary screen, strain 3D7, DAPI fluorescence, 100 nL (AID 1184);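 note: parasites grown inside human red blood cells in medium with human serum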
Details: P. falciparum 3D7 growth, 3 d, higher = more signal
Recorded measurements of z-score, one per entry

Compound	z-score
O=C(CS)NCCCCCCNC(=O)[C@@H]1C[C@@H]2C(=O)N[C@@H](Cc3ccccc3)C(=O)N2[C@@H]1c1cccc(OCCO)c1	1.17
COCCOC(=O)N1C(=O)[C@@]2(c3ccccc31)[C@H](c1ccc(O)cc1)N1[C@H](c3ccccc3)[C@H](c3ccccc3)OC(=O)[C@H]1[C@@H]2C(=O)Nc1nc2ccccc2s1	0.194
COc1ccc(CCNC(=O)[C@@]2(C)c3ccccc3C(=O)N(C(C)C)[C@H]2c2ccc(CO)cc2)cc1	-0.57
CCc1cccc(NC(=O)O[C@H]2[C@H](OC(=O)Nc3ccccc3-c3ccccc3)[C@@H](OC(=O)Nc3ccccc3-c3ccccc3)[C@@H](OC)O[C@@H]2CO)c1	-1.8
C=C(COC)/C(=C/C[C@@H](OC(C)=O)c1ccc(OCCO)cc1)c1cnc2ccccc2c1	-3.23
COc1cc(Br)cc(C(O)C2C=CC3C(=O)N(C)C(=O)C3N2N2CCCCC2)c1OC (stereo not drawn)	-0.11
CC(C)N1C(=O)c2ccccc2[C@](C)(C(=O)NCCN2CCOCC2)[C@@H]1c1ccc(CO)cc1	0.437
COC(=O)[C@]1(CCC(=O)OC(C)(C)C)N=C(c2ccc(OCCCO)cc2)O[C@@H]1c1ccccc1CN=[N+]=[N-]	-2.03

---

Experiment: S. cerevisiae growth modulation with rapamycin, primary screen, strain BY4716, OD600, 96 h (AID 1091); note: test concentration not given here
Conditions: higher = more signal, called active from +8 up or from −8 down
Activity calls are given as the source filed them.
Recorded measurements of z-score, one per entry

Compound	z-score
COC(=O)[C@@]1(Cc2ccc(OC)cc2)[C@H]2c3cc(C(=O)N(C)C)n(CCc4ccccn4)c3C[C@H]2CN1C(=O)c1ccccc1	2.81 (inactive)
CCCCCN1CC=CC23O[C@@H]4C=CCCOC(=O)C4[C@H]2C(=O)N(CCCCCO)[C@@H]3C1=O (some centres undefined)	-0.255 (inactive)
COC(=O)[C@@]1(Cc2ccc(OC)cc2)[C@H]2c3cc(C(=O)N4CCCC4)n(Cc4ccc(C)c(F)c4F)c3C[C@H]2CN1C(=O)c1ccccc1	1.57 (inactive)
O=C1C[C@@](C(=O)NC2CC2)(c2ccc([N+](=O)[O-])cc2)[C@@H](c2ccc(CO)cc2I)N1C1CCCCC1	1.45 (inactive)

---

Assay: small-molecule microarray binders of probe aEGFR, primary screen, biochemical, biotinylated probe, 635/667 nm fluorescence (AID 1097);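 note: probe is a biotinylated anti-EGFR antibody binding compounds printed on slides; score combines fluorescence near 667 nm and signal to noise of each spot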
Conditions: higher = more signal
Recorded measurements of composite z-score, one per entry

Compound	composite z-score
C=C(/C(=C/C[C@H](OC(C)=O)c1ccccc1OCCO)c1cnc2ccccc2c1)C(C)C	-0.044
COc1cc(Br)cc(C(O)C2C=CC3C(=O)N(C)C(=O)C3N2N2CCCCC2)c1OC (configuration not stated)	0.0122
NC(=O)[C@@H]1[C@H]2C(=O)O[C@H](c3ccccc3)[C@H](c3ccccc3)N2[C@H](c2ccc(O)cc2)[C@@]12C(=O)Nc1ccccc12	-0.289
C=CCOC(=O)[C@@H]1[C@H]2C(=O)O[C@H](c3ccccc3)[C@H](c3ccccc3)N2[C@H](c2ccc(OCCOC(=O)[C@H]3C[C@H]4C(=O)N5CCC[C@H]5C(=O)N4[C@H]3c3ccc(O)cc3)cc2)[C@@]12C(=O)Nc1ccc(I)cc12	-0.119
C=CC[C@]1(C(=O)NCc2ccccc2)N=C(c2ccc(OCCCO)cc2)O[C@H]1c1ccccc1N=[N+]=[N-]	0.0968
Cc1ccc([C@@H]2C[C@@H](Sc3ccccc3)[C@H](C(=O)O)CN2S(=O)(=O)c2ccc(C)cc2)cc1	0.0082
Cc1nc2cc(Br)ccc2c(=O)o1	0.104
